Values were extracted from PubChem BioAssay (NCI).

- System: PC-3 prostate
- Protocol Text: NCI-60 one-dose screen, 48 h (100 = growth as untreated, 0 = no growth, -100 = all killed)
- Measurement Conditions: 10 µM unless noted
About 83,000 compounds went through this panel and 20% of them were active in at least one assay; those are over-represented in the sample as a whole. The source made the active and inactive calls. The calls were made as follows: active = growth percent below 10; inactive = the rest.

Compound	growth
COc1cc2c(c(OC)c1OC)C(=O)N[C@@H]1[C@@H](O)[C@@H](O)[C@H](O)C[C@@H]21	96.5% (inactive)
CCOC(=O)C1CCN(c2ccc(N3C[C@@H](CNCc4ccc(C(=N)N)cc4)OC3=O)cc2)CC1	94.4% (inactive)
COc1cc(Nc2ncccc2NC(=O)c2cn(Cc3cccc(Oc4ccccc4)c3)nn2)cc(OC)c1	66.5% (inactive)
CCOC(=O)c1c(NC(=O)c2ccc(C(C)(C)C)cc2)sc2cc(O)ccc12	105% (inactive)
O=c1[nH]c(-c2ccc(Cl)cc2)cn1-c1ccc(-n2cc(-c3ccc(Cl)cc3)[nH]c2=O)cc1	77.5% (inactive)
CCOC(=O)c1cn2ncnc(Oc3ccc(NC(=O)NC4CC4)c(F)c3)c2c1C	87.7% (inactive)
Cc1ccc(Nc2nc(-c3ccc(F)cc3)c(C#N)c(=O)n2C)cc1	67.9% (inactive)
N=C(N)c1ccc(-c2ccc(-c3ccc(F)cc3)s2)s1	-24.2% (active)
COc1ccc(C(O)c2cc3c(N)c(C(=O)Nc4cccc(Cl)c4)sc3nc2C)cc1 (centres undefined)	27.3% (inactive)

====

- System: HCT-15 colon
- Protocol Text: NCI-60 one-dose screen, 48 h
- Measurement Conditions: 10 µM unless noted
The panel holds about 83,000 compounds, 20% with a hit somewhere; the sample as a whole holds those more often. The source made the active and inactive calls. The calls were made as follows: active = growth percent below 10; inactive = the rest.
Outcome codes: active, inactive

Substance Smiles	Class Assignment
CCCCCCCCn1ccc2cc(NC(=O)Cn3cc(CN4CCOCC4)nn3)ccc21	inactive
Cc1ccc(Nc2nc(-c3ccc(F)cc3)c(C#N)c(=O)n2C)cc1	inactive
CCOC(=O)NN1CC(O)=C(c2nc(-c3ccc(Br)cc3)cs2)C1=N	inactive
COc1cc2ncnc(Nc3ccc(F)c(Cl)c3)c2cc1OCC(=O)N1CCN(c2ccc(F)cc2)CC1	inactive
C=C1C(=O)O[C@H]2[C@H]1CC/C(Cn1cc(-c3cc(C(F)(F)F)cc(C(F)(F)F)c3)nn1)=C\CC[C@@]1(C)O[C@@H]21	active

====

- Test system: RXF 393 renal
- Protocol Text: NCI-60 one-dose screen, 48 h (100 = growth as untreated, 0 = no growth, -100 = all killed)
- Measurement Conditions: 10 µM unless noted
This is part of a sample that, as a whole, favours compounds with a hit. Of some 83,000 tested, about 20% had one in any assay. Activity calls are given as the source filed them. How the source made its calls: active means growth percent below 10; inactive means the rest.
Catalogue of compounds with associated growth
Measured Attribute: growth

Compound	Measured Attribute	Recorded Measurement
COc1ccc(/C=C/C(=O)c2cc3c(N)c(C(=O)Nc4ccccc4C)sc3nc2C)cc1	growth	-23.1% (active)
C[C@@H]1O[C@@H](O[C@@H]2C[C@H](c3ccc4c(c3O)C(=O)C3=C(C4=O)[C@@]4(O)C(=O)C[C@](C)(O)C[C@@]4(O)C=C3)O[C@H](C)[C@H]2O)C[C@H](O)[C@@H]1O	growth	106% (inactive)
O=C(Cn1cc(CN2C(=O)c3ccccc3S2(=O)=O)nn1)Nc1cccc(Cl)c1	growth	106% (inactive)
CS(=O)(=O)Nc1cc(-c2ccc3ncnc(Nc4ccc5c(cnn5Cc5cccnc5)c4)c3c2)cnc1Cl	growth	44.4% (inactive)
CCN(CC)c1ccc(/C=N\NC(=O)c2cccc(Nc3ccnc(C(F)(F)F)c3)c2)c(O)c1	growth	-1.92% (active)
S=c1[nH]c2cc(Cl)ccc2o1	growth	104% (inactive)
COc1cccc(NC(=O)c2cccc(C3CCc4c(cc(OC)c(OC)c4OC)O3)c2)c1 (stereo not given)	growth	88.9% (inactive)
Nc1nc(C(=O)N/N=C/c2ccc(N3CCOCC3)cc2)nn1-c1ccc(S(N)(=O)=O)cc1	growth	108% (inactive)
O=C(N=Nc1c(O)[nH]c2ccccc12)Nc1ccc(Cl)cc1	growth	96.3% (inactive)
CC1=CCC[C@@H]2C1(C)CC[C@H](C)[C@@]2(C)CC1=CC(=O)C(SC(C)(C)C)=CC1=O (stereo not given in full)	growth	74.5% (inactive)
COc1ccc(-c2ccc(=O)oc2C#Cc2cc(OC)c(OC)c(OC)c2)cc1O	growth	-13.2% (active)
O=C1CC2C=CCN2C=C1NC(=O)C1CCCCC1 (stereo not given)	growth	104% (inactive)
Cc1nc2ccccc2c(/C=C/c2ccc(C(F)(F)F)cc2)c1C(=O)/C=C/c1ccccc1	growth	-82.9% (active)
Cc1[nH]c(/C=C/C(=O)c2ccc(C(F)(F)F)c(F)c2)c(C)c1C(=O)NCC(C)C	growth	93.8% (inactive)
COP(=O)(OC)c1nnn(-c2cccc([N+](=O)[O-])c2)c1C	growth	118% (inactive)
CCCCCCCCn1ccc2cc(NC(=O)Cn3cc(CN4CCN(CC)CC4)nn3)ccc21	growth	67.7% (inactive)
O=C(NCc1ccccc1O)c1cccc2ccccc12	growth	95.2% (inactive)
CCOC(=O)c1c(-c2ccccc2)n2c(=O)cc(C)c3c(O)c(O)cc1c32	growth	76.3% (inactive)
CCOC(=O)c1cn2ncnc(Oc3ccc(NC(=O)NC4CC4)c(F)c3)c2c1C	growth	97.2% (inactive)
COc1cc(C(=O)/C=C/c2c(-c3cccs3)nc3ccccn23)cc(OC)c1OC	growth	2.35% (active)

====

- System: UACC-257 melanoma
- Protocol Text: NCI-60 one-dose screen, 48 h
- Measurement Conditions: 10 µM unless noted
- Method: Cells are grown in 96 well plates and exposed to the test compound for 48 hours. Compounds are tested at a single concentration, which is 10^-5 M for most compounds. The reported endpoint is percent growth (GI% or GIPRCNT), where numbers from 0 - 100% represent growth inhibition, and numbers from -100% - 0 represent cell death. For example, a value of 40 represents 60% growth inhibition. A value of 0 means no net growth occurred over the course of the experiment. […]
Compounds without any hit were thinned out: in the full panel of roughly 83,000, 20% have a hit. Active and inactive are the calls of the source. Rule for the calls: active = growth percent below 10; inactive = the rest.
Outcome codes: active, inactive

Molecule	Class Assignment
Cc1ccc(/C=C(\C#N)C(=O)Nc2ncc(Cc3cc(Cl)ccc3Cl)s2)o1	inactive
O=C1NC(=C(Cl)Cl)/C(=N/S(=O)(=O)N2CCCCC2)N1	inactive
COc1cc(/C=C/c2cc(/C=C/c3ccc(O)c(OC)c3)n(C(=O)Nc3ccc(F)cc3)n2)ccc1O	inactive
CN1CCN(c2ccc3c(c2)nc(NNC(=O)c2cnccn2)c2cccn23)CC1	inactive
C=CC1(C)C(O[Si](C)(C)C(C)(C)C)CC2C3OC(=O)NC31c1cccc3c1[C@H](C(=O)N3C)C2(C)C (some centres not stated)	inactive
Cc1[nH]c(/C=C/C(=O)c2ccc(C(F)(F)F)c(F)c2)c(C)c1C(=O)NCC(C)C	inactive
CCN(CC)S(=O)(=O)c1ccc(S(=O)(=O)N2CCC[C@@H](C(=O)N3CCN(C(=O)OC(C)(C)C)CC3)C2)cc1	inactive
C/C(=N\O)C(=O)NCCCCCC(=O)Nc1ccccc1	inactive
FC(F)(F)c1[nH]ncc1-c1nc2c(N3CCCCC3)cc3[nH]ncc3c2c2c1CCCC2	active
Cc1cc2oc(=O)cc(CP(=O)(O)O)c2cc1O	inactive
CCCCCCCCn1ccc2cc(NC(=O)Cn3cc(CN4CCN(CC)CC4)nn3)ccc21	inactive
O=C(O)c1cccc(N/C=C/C(=O)c2cc3cc(Br)ccc3oc2=O)c1	inactive
O=C(Cn1nnc([N+](=O)[O-])n1)c1ccccc1	inactive
O=[N+]([O-])/C(=C\c1ccco1)c1ccccc1Cl	inactive
Cc1ccc(/C=C2\CN(C(=O)C(Cl)Cl)C/C(=C\c3ccc(C)cc3)C2=O)cc1	active
CCCCCCCCCCCCCCCCCCOc1ccccc1CC(=O)NCC[N+]1(C)CCOCC1	inactive
NC(CSC(c1ccccc1)(c1ccccc1)c1ccc2c(c1)OCO2)C(=O)O (configuration not stated)	inactive
C=C1C(=O)O[C@H]2[C@H]1CC/C(COC(=O)NCCCCCCCCNC(=O)OC/C1=C/CC[C@@]3(C)O[C@H]3[C@H]3OC(=O)C(=C)[C@@H]3CC1)=C\CC[C@@]1(C)O[C@@H]21	active
Cn1cc(-c2csc(-c3cn(C(=O)OC(C)(C)C)c4ccccc34)n2)c2ccnc(Cl)c21	inactive
O=C1/C(=C/c2ccc(Br)cc2)COc2ccc(O)c(O)c21	active
O=C(/C=C/C12c3ccccc3C(c3ccccc31)C1C(=O)NC(=O)C12)c1ccc(F)cc1 (configuration not stated)	inactive
CC1(C)CC[C@]2(C(=O)O)CC[C@]3(C)C(=CC[C@@H]4[C@@]5(C)C[C@@H](Cc6cn([C@@H]7O[C@H](CO)[C@@H](O)[C@H](O)[C@H]7O)nn6)[C@H](O)C(C)(C)[C@@H]5CC[C@]43C)[C@@H]2C1	inactive
O=C(/C=C\c1ccco1)/C=C/c1ccco1	inactive
O=C1Nc2ccccc2C2c3cccn3-c3ccccc3N12 (configuration not stated)	inactive
O=C(CCl)Nc1ccc2c(Nc3cc(O)ccc3Cl)ncnc2c1	active
CC(/C=C1\SC(=S)N(CC(=O)NC(Cc2c[nH]c3ccccc23)C(=O)O)C1=O)=C\c1ccccc1 (configuration not stated)	inactive
O=C(/C=C/c1ccccc1)Nc1ncc(Cc2ccccc2)s1	inactive
CCCCCCCC/C=C\CCCCCCCCOc1ccccc1CC(=O)NCC[N+]1(C)CCCCC1	inactive
COc1ccc(-c2cc(-c3ccc(OC)cc3)nc(NCCCNc3ccnc4cc(Cl)ccc34)n2)cc1	inactive
CC(CN)[C@@H]1CC[C@]2(CO)CC[C@]3(C)[C@H](CC[C@@H]4[C@@]5(C)CCC(N)C(C)(C)[C@@H]5CC[C@]43C)[C@@H]12 (some centres not stated)	inactive
COc1cc(C2Cc3ncccc3-c3[nH]c(=O)c4cccnc4c32)cc(OC)c1OC (configuration not stated)	inactive
CN1CCN(Cc2ccc(NC(=O)c3cncc(C#Cc4cncc5ncccc45)c3)cc2C(F)(F)F)CC1	active
